- Tested on: 786-0 renal
- Method notes: NCI tumour cell line growth inhibition, 48 h
Consider the following compounds; for each one, report its TGI.

# input Data request, read-out TGI, for CCOC(=O)CCC(NC(=O)c1ccc(N=Cc2nc3ccccc3nc2-c2ccccc2)cc1)C(=O)OCC (stereo not given)
# output > 100 µM

# input Data request, read-out TGI, for CC(C)N(C(=O)C12C3C4C1C1C2C3C41I)C(C)C (stereo not given)
# output > 100 µM

# input Data request, read-out TGI, for CCOc1ccc2c(c1)CN(Cc1ccc(Cl)cc1)CO2
# output 30.1 µM

# input Data request, read-out TGI, for CCOC(=O)N(C)C(=C(F)F)C(F)(F)F
# output 72 µM

# input Data request, read-out TGI, for CCCC(C)NC(=O)c1ccc(N(C)Cc2cnc3nc(N)nc(N)c3n2)cc1 (stereo not given)
# output > 100 µM

# input Data request, read-out TGI, for Cc1nc(-c2cnc(NC(C)C)n(C)c2=O)ccc1Oc1ccnc(-c2cnn(C)c2)c1
# output > 100 µM

# input Data request, read-out TGI, for CC(c1ccccc1)[C@@H](C(=O)Nc1ccc(I)cc1F)N1C(=O)N[C@H](c2ccc(OC[C@H](O)CO)cc2)C1=O (stereo not given in full)
# output > 25 µM

# input Data request, read-out TGI, for CC1(C)OCN(c2ccc(S(N)(=O)=O)cc2)Cn2c1nc1ccccc12
# output > 100 µM

# input Data request, read-out TGI, for O=C(N/N=C(/c1nc2ccc([N+](=O)[O-])cc2[nH]c1=O)C(O)c1ccc([N+](=O)[O-])cc1)c1ccncc1 (stereo not given)
# output > 100 µM

# input Data request, read-out TGI, for CCCCCCCCCCSC(=O)NC
# output > 100 µM

###

- Tested on: SK-MEL-28 melanoma
- Method notes: NCI tumour cell line growth inhibition, 48 h
Attribute measured: TGI

# input Data request, read-out TGI, for Cc1ccc(NC(=O)CSc2nnc(Cc3ccccc3)o2)cc1
# output > 100 µM

# input Data request, read-out TGI, for O=C1C=CC(=Nc2cccc3c(N=C4C=CC(=O)O4)cccc23)O1
# output > 100 µM

# input Data request, read-out TGI, for Clc1ccc2ncc(-c3cccc(NC4CNC4)n3)n2c1
# output > 100 µM

# input Data request, read-out TGI, for Cc1nc(-n2nc(-c3ccccc3)cc2-c2ccccc2)sc1C(=O)/C=C/c1ccc(Cl)c(Cl)c1
# output > 100 µM

# input Data request, read-out TGI, for O=C(Nc1ccc(-n2ccc3c(NC(=O)c4ccccc4)nccc32)cc1)Nc1cccc(C(F)(F)F)c1
# output 21 µM

# input Data request, read-out TGI, for O=C(Cc1csc2nc(-c3ccc(Cl)cc3)cn12)N/N=C/c1ccccc1O
# output > 100 µM

# input Data request, read-out TGI, for C/C(=N/O)c1ccc2c(c1)/C(=N/O)c1ccccc1-2
# output 39.9 µM

# input Data request, read-out TGI, for COc1ccc(C(=O)O[C@H]2[C@H](O[C@H]3[C@@H](O)COC(O[C@H]4C[C@H]5[C@@H]6CC=C7C[C@@H](O)CC[C@]7(C)[C@H]6CC[C@]5(C)[C@H]4[C@H](C)C(=O)CCC(C)C)[C@@H]3OC(C)=O)OC[C@@H](O)[C@@H]2O)c(C)c1 (stereo partly drawn)
# output < 0.01 µM

# input Data request, read-out TGI, for C=C1C(=O)O[C@H]2[C@H]1CC/C(Cn1cc(-c3cccc(Cl)c3)nn1)=C\CC[C@@]1(C)O[C@@H]21
# output 1.27 µM

# input Data request, read-out TGI, for O=C(Cn1c(=O)oc2ccc(C(=O)c3ccc(F)cc3)cc21)c1ccccc1
# output > 100 µM

# input Data request, read-out TGI, for CCOc1ccc(/C=C(\Cl)c2ccc(OC)cc2)cc1
# output > 100 µM

# input Data request, read-out TGI, for Cc1ccc(-c2nc(N3CCNCC3)c3oc(-c4ccccc4)nc3n2)cc1
# output 3.39 µM

# input Data request, read-out TGI, for Cc1c(-c2ccc(O)cc2)oc(=O)c2ccc(O)cc12
# output > 100 µM

# input Data request, read-out TGI, for CCN1CCN(c2nc3ccccc3nc2C(=O)c2ccc(OC)c(OC)c2)CC1
# output 27.3 µM

# input Data request, read-out TGI, for Nc1nnc(CCC(=O)Nc2cc(Cl)ccc2Cl)n1N
# output > 100 µM

# input Data request, read-out TGI, for COC(=O)c1nn2ccc3ccccc3c2c1C(=O)OC
# output > 100 µM

# input Data request, read-out TGI, for CCN(CC)c1ccc(C2NC(=O)c3ccccc3N2)cc1 (stereo not drawn)
# output > 100 µM

# input Data request, read-out TGI, for COc1cc(C2c3cc4c(cc3[C@@H](Nc3ccc(Oc5ccccc5)cc3)C3COC(=O)[C@H]23)OCO4)cc(OC)c1O (stereo partly drawn)
# output > 100 µM

###

Consider the following compounds; for each one, report its TGI.
- System: K-562 leukemia
- Method notes: NCI tumour cell line growth inhibition, 48 h

# input Tell me reported TGI for Cn1c2[n+](c3nc(N)[nH]c(=O)c31)C1OC(C2)C(O)C1O (stereo not drawn) , tested with K-562 leukemia.
# output > 100 µM

# input Tell me reported TGI for CCCCCCCCCCCCCCCCc1c(C(=O)OC)nc(NN)[nH]c1=O , tested with K-562 leukemia.
# output > 50 µM

# input Tell me reported TGI for CCN(CC)c1ccc(C2NC(=O)c3ccccc3N2)cc1 (stereo not drawn) , tested with K-562 leukemia.
# output > 100 µM

# input Tell me reported TGI for Clc1ccc(CCc2ccncn2)c(Cl)c1 , tested with K-562 leukemia.
# output > 100 µM

# input Tell me reported TGI for CCCCC(/C=C\COC1CCCCO1)=C/C(=O)OCC (stereo not drawn) , tested with K-562 leukemia.
# output > 100 µM

# input Tell me reported TGI for N#Cc1ncn(CCO)c1N , tested with K-562 leukemia.
# output > 100 µM

# input Tell me reported TGI for CCOC(=O)c1sc2c(c1O)c(=O)n(-c1ccccc1)c(=S)n2-c1ccccc1 , tested with K-562 leukemia.
# output > 100 µM

# input Tell me reported TGI for CCCCCCCCCC(CCCC(O)CC(=O)O)OC1OC(COC2OC(C)C(OC(C)=O)C(O)C2O)C(O)C(O)C1OC1OC(CO)C(O)C(O)C1OC1OC(C)C(OC(=O)CC(C)C)C(O)C1O (stereo not drawn) , tested with K-562 leukemia.
# output > 35 µM

# input Tell me reported TGI for CC1C(=O)c2cc3c(cc2CCN(C)Cc2c1ccc1c2OCO1)OCO3 (stereo not drawn) , tested with K-562 leukemia.
# output > 75 µg/mL

# input Tell me reported TGI for CC1CCC(=O)C(C(O)CC2CC(=O)N(c3ccccc3)C(=O)C2)C1 (stereo not drawn) , tested with K-562 leukemia.
# output > 100 µM

# input Tell me reported TGI for CC(=O)Nc1ccc(C(=O)NN2C(=O)C(Cl)C2c2cccc([N+](=O)[O-])c2)cc1 (stereo not drawn) , tested with K-562 leukemia.
# output > 100 µM

# input Tell me reported TGI for Cc1nc(-c2cnc(NC(C)C)n(C)c2=O)ccc1Oc1ccnc(-c2cnn(C)c2)c1 , tested with K-562 leukemia.
# output 9.33 µM

# input Tell me reported TGI for COc1ccc(Cl)cc1Nc1nc(C(F)(F)F)ccc1C(=O)N/N=C/c1cccnc1 , tested with K-562 leukemia.
# output > 100 µM

# input Tell me reported TGI for CCOC(=O)C(/C(=N\NC(=O)OC)C(=O)Nc1cc(OC)ccc1OC)c1cnc2ccccc2n1 (stereo not drawn) , tested with K-562 leukemia.
# output > 100 µM

# input Tell me reported TGI for O=[N+]([O-])c1ccc(C2=NOC(c3ccc(Cl)cc3)N2C23CC4CC(CC(C4)C2)C3)cc1 (stereo not drawn) , tested with K-562 leukemia.
# output > 100 µM

# input Tell me reported TGI for C[C@@H]1O[C@]2(O)[C@@H]3CCCN3S(=O)(=O)CCN2C1=O , tested with K-562 leukemia.
# output > 100 µM

# input Tell me reported TGI for COc1cc(C(C[N+](=O)[O-])SC(C)=O)ccc1OCc1ccccc1 (stereo not drawn) , tested with K-562 leukemia.
# output 5.45 µM

# input Tell me reported TGI for Cc1nc(N)c(-c2ccccc2)s1 , tested with K-562 leukemia.
# output > 100 µM

# input Tell me reported TGI for COC(=O)C1CC23C4=C(CCC41)CCC1CN4CC(C)C(CC(OC(C)=O)C12COC(C)=O)C43O (stereo not drawn) , tested with K-562 leukemia.
# output > 100 µM

# input Tell me reported TGI for C=C1C(=O)O[C@H]2C/C(C)=C/CC[C@]3(C)CCC[C@](C)(CC[C@@H]12)O3 , tested with K-562 leukemia.
# output 18.8 µM

# input Tell me reported TGI for COC1=C(OC)C(=O)C(Sc2ccc3ccccc3c2)=CC1=O , tested with K-562 leukemia.
# output 10.3 µM

# input Tell me reported TGI for COc1cc(C2SCC(=O)N2c2ccc(NC(C)=O)cc2)cc(OC)c1OC (stereo not drawn) , tested with K-562 leukemia.
# output > 100 µM

# input Tell me reported TGI for O=C(Cc1csc2nc(-c3ccc(Cl)cc3)cn12)N/N=C/c1ccccc1O , tested with K-562 leukemia.
# output > 100 µM

# input Tell me reported TGI for Clc1ccc(Nc2nc(Nc3ccccc3)nc(Nc3ccc(-c4cc(-c5ccc(Cl)cc5)on4)cc3)n2)cc1 , tested with K-562 leukemia.
# output > 100 µM

# input Tell me reported TGI for N#C/C(=C\c1cc(O)ccc1O)C(N)=O , tested with K-562 leukemia.
# output > 100 µM

# input Tell me reported TGI for N/C(=N\N=C\c1cc(I)cc(I)c1O)NO , tested with K-562 leukemia.
# output > 100 µM

# input Tell me reported TGI for COc1cc(/C=C/c2ccc(Br)cc2)cc(OC)c1OC , tested with K-562 leukemia.
# output > 37.8 µM

# input Tell me reported TGI for O=C1c2cccnc2C(=O)c2c1c(C(=O)NCCn1ccnc1)c1ccccn21 , tested with K-562 leukemia.
# output > 100 µM

# input Tell me reported TGI for CN=C(N)N=Nc1c(O)[nH]c2ccccc12 , tested with K-562 leukemia.
# output > 100 µM

# input Tell me reported TGI for CN(C)C(=O)NC(=S)N(C)C , tested with K-562 leukemia.
# output > 100 µM

# input Tell me reported TGI for C[C@@H]1OC2(O)[C@H]3CCCN3S(=O)(=O)CCN2C1=O (stereo partly drawn) , tested with K-562 leukemia.
# output > 100 µM

# input Tell me reported TGI for CC1=CC(O)C(C(O)(C(F)(F)F)C(F)(F)F)C(C)(C)C1 (stereo not drawn) , tested with K-562 leukemia.
# output > 10 µM

# input Tell me reported TGI for COc1cc(/C=N/c2ccccn2)cc(OC)c1OC , tested with K-562 leukemia.
# output > 100 µM

# input Tell me reported TGI for NC(Cc1c[nH]c2ccc(F)cc12)C(=O)O (stereo not drawn) , tested with K-562 leukemia.
# output > 2500 µM

# input Tell me reported TGI for CCCCN=C(N)c1ccc(N2CCCN(c3ccc(C(N)=NCCCC)cc3)CC2)cc1 , tested with K-562 leukemia.
# output > 100 µM

# input Tell me reported TGI for O/C(=C\c1nc2ccccc2nc1/C=C(\O)c1ccc(F)cc1)c1ccc(F)cc1 , tested with K-562 leukemia.
# output > 100 µM

# input Tell me reported TGI for CC(=O)Nc1ccc(/C=C2\N=C(c3ccccc3)OC2=O)cc1 , tested with K-562 leukemia.
# output > 100 µM

# input Tell me reported TGI for O=C(CCl)Nc1cc(Cl)c(Cl)cc1Cl , tested with K-562 leukemia.
# output > 10 µM

# input Tell me reported TGI for N#Cc1ccccc1C#C/C=C\C#Cc1ccccc1N , tested with K-562 leukemia.
# output > 100 µM

# input Tell me reported TGI for CCCCCCCCCCCCCCCCCCOc1ccccc1CC(=O)OCC[N+](CC)(CC)CC , tested with K-562 leukemia.
# output 50 µM

# input Tell me reported TGI for COc1cc(C2C(C(=O)Nc3ccc([N+](=O)[O-])cc3)=C(C)NC(C)=C2C(=O)Nc2ccc([N+](=O)[O-])cc2)ccc1O , tested with K-562 leukemia.
# output 81.6 µM

# input Tell me reported TGI for COc1ccc(-c2ccccc2)c2[nH]c3c(c12)CCNC3=O , tested with K-562 leukemia.
# output > 100 µM

# input Tell me reported TGI for C[C@@H]1CCC2C(C)(C)C(/C=C\C=O)C3(C)OC213 (stereo partly drawn) , tested with K-562 leukemia.
# output > 100 µM

Ref: PubChem BioAssay (NCI)
